Assay: solvent given as SMILES
Settings: in O
quantity.name: solvation free energy, 298 K (kcal/mol)
Express the result in kcal/mol but write the number alone.

As a guide, the following entries are already answered.
N#CCc1ccccc1; -5.05
CCCCCCCCC; 2.98
CCCOC(=O)CC; -2.45
Oc1cccc2ccccc12; -7.93
CCNc1nc(NC(C)(C)C)nc(OC)n1; -9

// query Look up solvation free energy, 298 K for this compound: Cc1ccc(C=O)cc1
// result -4.27

// query Reported solvation free energy, 298 K, compound CCc1cccnc1 : ____
// result -4.59

// query Can you look up the measured solvation free energy, 298 K of COS(=O)(=O)OC for me?
// result -5.1

// query I am curious: what solvation free energy, 298 K value has been reported for Clc1cc(Cl)c(Cl)cc1Cl ?
// result -1.34

// query I'd like to know its solvation free energy, 298 K. The compound in question is Clc1ccc2c(c1)Oc1cc(Cl)c(Cl)c(Cl)c1O2
// result -3.84

---

Listing of entries alongside the reported solvation free energy, 298 K.
Assay: solvent given as SMILES
Conditions: in CCC(C)=O
// return numeric value only (unit: kcal/mol, not printed)

CCCCCCCC; -4.69
C=CC; -1.54

Now take the following compound into account.
// query Which value of solvation free energy, 298 K has been reported for CCc1ccccc1 in the records?
// result -5.62

---

Assay: solvent given as SMILES
Settings: in CCCCCCCCCCCCCCCC
Classify: t when solvation free energy, 298 K is strictly less than -4 kcal/mol; f when solvation free energy, 298 K is not.

Some solved entries appear below for comparison.
CC(C)C(C)C(C)C; t
CCCCCCO; t
CCCCC; f

// query Determine if CC(C)=O shows solvation free energy, 298 K strictly lower than -4 kcal/mol.
// result f

// query Please determine if CCC(C)O (stereo not drawn) is below -4 kcal/mol in terms of solvation free energy, 298 K.
// result f

// query Hi there! Is solvation free energy, 298 K for CC(=O)OCC(C)C below -4 kcal/mol, do you know?
// result t

---

Test: solvent given as SMILES
Conditions: in O
Recorded solvation free energy, 298 K values for a group of compounds are listed next.
Entry rule: numbers only, all in kJ/mol.

These solved cases illustrate the format of a correct answer.
C=C(C)C(=O)O; -25.4
CN(C)CCC(c1ccc(Br)cc1)c1ccccn1 (centres undefined); -48.5
CCCCC[N+](=O)[O-]; -11.8
CC(C)(c1ccc(O)cc1)c1ccc(O)cc1; -60.2
Oc1c(I)cc(I)cc1I; -30
C=C(C)C1CCC(C)C12CC=C(C)CC2 (centres undefined); 1.05
C=C1CCC2(C(C)C)CC12 (centres undefined); 2.05
C=CC(=C)CCC=C(C)C; -2.09

// query # solvation free energy, 298 K lookup, item CCOC(=O)c1ccccc1O
// result -16

// query GET /values?readout=solvation free energy, 298 K&item= CC(C)N(N=O)C(C)C
// result -21.6

// query Entry C=CCl : reported solvation free energy, 298 K = ?
// result -2.47

// query GET /values?readout=solvation free energy, 298 K&item= COc1ccccc1N
// result -25.6

// query Please report the recorded solvation free energy, 298 K for COc1ccccc1OC .
// result -22.3

// query Requested field: solvation free energy, 298 K. Item: CC(C)Br
// result -2.01

// query // returns reported solvation free energy, 298 K for input Nc1ccc2c(c1)C(=O)c1ccccc1C2=O
// result -48.2

// query Given Oc1ccc2ccccc2c1 , state its recorded solvation free energy, 298 K.
// result -34

// query Find the recorded solvation free energy, 298 K belonging to CCCCCCC(=O)O and report it.
// result -25.6

// query Query: solvation free energy, 298 K; subject: COc1cccc(N)c1
// result -30.5

// query So what does the record say about solvation free energy, 298 K for Cc1ccccc1C=O ?
// result -16.4

// query Data request, read-out solvation free energy, 298 K, for CC(C)C(C)C
// result 9.87

// query If you can, please state the reported solvation free energy, 298 K value of C1CO1 .
// result -12

// query Recorded solvation free energy, 298 K of CC1=CC2C(CCC(C)=CCC1)C2(C)C (centres undefined) , please.
// result -2.18

// query Which solvation free energy, 298 K is reported for this compound? Clc1ccc(-c2ccc(Cl)c(Cl)c2)c(Cl)c1
// result -13.2

---

Assay: solvent given as SMILES
Settings: in NC=O
quantity.name: solvation free energy, 298 K (kcal/mol)
Report the value in kcal/mol with no unit label.

Please review the following examples before continuing.
CCCCCCO; -6.04
CCOCC; -1.93
CC(C)c1ccccc1; -3.38
CCCCCOC(C)=O; -4.32
CCO; -4.84

// query For the molecule CCCCCCCCC , what solvation free energy, 298 K is on record?
// result -1.66

// query Please report the recorded solvation free energy, 298 K for CCCCCC=O .
// result -4.02

---

Experiment: solvent given as SMILES
Conditions: in CCCCCCCC
Classification by solvation free energy, 298 K follows these ranges: bottom bin (below -6 kcal/mol), middle bin (-6 kcal/mol to below -4 kcal/mol), top bin (-4 kcal/mol or more)

C1CCOC1; top bin
C=CC; top bin
CCC(C)C(C)O (stereo unspecified); middle bin
FC(F)(Cl)Cl; top bin
CCC(C)O (stereo unspecified); top bin
FC(F)(F)F; top bin
CCc1ccc2c(c1)C(=O)c1ccccc1C2=O; bottom bin
Cc1ccc(O)cc1C; bottom bin

// query GET /class?item= CCO
// result top bin

// query Any idea which band CCCCC is in?
// result top bin

// query Category of CC(C)=O :
// result top bin

// query Which bin should I file CCC(C)(O)C(C)C (stereo unspecified) under?
// result middle bin

// query Note: place this compound into its band. Item: Cc1cc(C)c(C)cc1C
// result bottom bin

---

Experiment: solvent given as SMILES
Conditions: in CCCO
Mark TRUE only when solvation free energy, 298 K stays strictly below -5 kcal/mol. Values equal to the cut-off are FALSE.

CCC(=O)OC; FALSE

// query Field: below-cutoff. Rule: recorded solvation free energy, 298 K strictly less than -5 kcal/mol. Subject: O=c1[nH]c2ccccc2n1C1CCN(CCCC(c2ccc(F)cc2)c2ccc(F)cc2)CC1
// result TRUE

// query API: query returns whether the compound falls strictly under -5 kcal/mol in solvation free energy, 298 K. Query: c1cc2ccc3cccc4ccc(c1)c2c34
// result TRUE

// query Input O=C(O)c1ccc(Cl)c([N+](=O)[O-])c1 ; condition: solvation free energy, 298 K strictly below -5 kcal/mol. Does it hold?
// result TRUE

// query Please let me know if c1ccncc1 shows solvation free energy, 298 K below -5 kcal/mol.
// result TRUE

---

Test: solvent given as SMILES
Conditions: in O
quantity.name: solvation free energy, 298 K (kcal/mol)
Response body: numeric value in kcal/mol, unit text excluded.

The following compounds have reported results that may help.
CCNc1nc(Cl)nc(NC(C)C)n1; -9.69
CC(C)OC=O; -2.02
Cc1cccc(N)c1; -5.69
COC(OC)(OC)C(F)(F)F; -0.8
CC1=CC2C(=CC1)C(C)CCC2C(C)C (stereo not drawn); -0.26
CCCCCC=O; -2.74
CCC(C)(C)OC; -1.77
CC(C)CCC(C)C; 2.78
OCC(O)C(O)C(O)C(O)CO (stereo not drawn); -23.6
FC(F)(F)F; 3.13

// query Reported solvation free energy, 298 K, compound CC(=O)CC(C)=O : ____
// result -4.84

// query For the compound shown here, Cc1ccncc1 , give the reported solvation free energy, 298 K.
// result -4.94

// query Recorded solvation free energy, 298 K of Clc1cccc2c1Oc1ccccc1O2 , please.
// result -3.52

// query Data request, read-out solvation free energy, 298 K, for COc1ccc(C(=O)N(C)C)cc1
// result -11

// query Suppose we examine the compound O=P(c1ccccc1)(c1ccccc1)c1ccccc1 ; what solvation free energy, 298 K value has been reported?
// result -17

---

Assay: solvent given as SMILES
Conditions: in CCCCCCCCCCCCCCCC
quantity.name: solvation free energy, 298 K (kcal/mol)
Enter your answer as a number in kcal/mol; do not include the unit.

The examples below pair each entry with its known result.
CCCCCCC; -4.34
CC(=O)c1ccccc1; -6.04
CN(C)C=O; -3.88

// query # get_value(readout='solvation free energy, 298 K', item= CC(=O)N(C)C )
// result -4.26

// query Name the recorded solvation free energy, 298 K for CCc1ccccc1 .
// result -5.16
